# assay.system: FMS kinase (Homo sapiens)
# Sequence (P07333 20-972): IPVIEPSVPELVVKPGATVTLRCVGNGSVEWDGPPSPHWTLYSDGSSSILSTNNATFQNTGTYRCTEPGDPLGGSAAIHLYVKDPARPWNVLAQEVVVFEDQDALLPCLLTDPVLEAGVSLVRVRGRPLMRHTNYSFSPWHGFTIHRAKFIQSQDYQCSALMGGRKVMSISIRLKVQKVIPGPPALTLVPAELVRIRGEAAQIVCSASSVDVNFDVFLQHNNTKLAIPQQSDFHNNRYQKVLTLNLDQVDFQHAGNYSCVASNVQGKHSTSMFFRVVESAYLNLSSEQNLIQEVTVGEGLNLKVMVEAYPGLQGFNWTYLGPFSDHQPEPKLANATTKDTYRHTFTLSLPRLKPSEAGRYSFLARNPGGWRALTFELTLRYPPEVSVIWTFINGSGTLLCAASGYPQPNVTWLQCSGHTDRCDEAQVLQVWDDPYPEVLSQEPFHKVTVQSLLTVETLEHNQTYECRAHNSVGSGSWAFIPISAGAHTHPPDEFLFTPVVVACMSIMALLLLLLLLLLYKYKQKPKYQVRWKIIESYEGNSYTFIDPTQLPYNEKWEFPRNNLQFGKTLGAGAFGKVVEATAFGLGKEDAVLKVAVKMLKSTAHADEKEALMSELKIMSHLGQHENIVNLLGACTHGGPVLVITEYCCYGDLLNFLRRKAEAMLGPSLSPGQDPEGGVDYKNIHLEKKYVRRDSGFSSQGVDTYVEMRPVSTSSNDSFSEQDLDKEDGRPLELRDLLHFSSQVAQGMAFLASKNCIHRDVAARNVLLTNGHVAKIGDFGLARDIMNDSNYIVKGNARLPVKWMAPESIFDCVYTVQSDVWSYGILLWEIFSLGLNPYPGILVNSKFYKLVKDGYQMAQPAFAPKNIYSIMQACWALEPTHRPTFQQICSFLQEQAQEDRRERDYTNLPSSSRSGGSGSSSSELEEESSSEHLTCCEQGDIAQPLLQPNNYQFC
Rule: IC50 below 6 nM gives true (1), anything at or above gives false (0).

>>> class_name("N#Cc1cc2cnc(NC3CCN(S(=O)(=O)CC(F)(F)F)CC3)nc2n(C2CCCC2)c1=O [Compound No. 358]")
"false (0)"
>>> class_name("N#Cc1cc2cnc(Nc3ccc(N4CCNCC4=O)cc3)nc2n(C2CCCC2)c1=O [Compound No. 12]")
"true (1)"
>>> class_name("N#Cc1cc2cnc(Nc3cccc(S(=O)(=O)N4CCOCC4)c3)nc2n(C2CCCC2)c1=O [Compound No. 20]")
"false (0)"
>>> class_name("CN1CCN(c2ccc(Nc3ncc4cc(C#N)c(=O)n(C5CCCC5)c4n3)cc2F)CC1 [Compound No. 36]")
"false (0)"
>>> class_name("CS(=O)(=O)N1CCC(Nc2ncc3cc(C#N)c(=O)n(C4COCC4O)c3n2)CC1 (centres unmarked) [Compound No. 350]")
"false (0)"
>>> class_name("CC1CN(c2ccc(Nc3ncc4cc(C#N)c(=O)n(C5CCCC5)c4n3)nc2)CCN1 (centres unmarked) [Compound No. 23]")
"false (0)"
>>> class_name("N#Cc1cc2cnc(Nc3cccc(C(N)=O)c3)nc2n(C2CCCC2)c1=O [Compound No. 5]")
"true (1)"
>>> class_name("N#Cc1cc2cnc(Nc3cc(F)c(N4CCNCC4)c(F)c3)nc2n(C2CCCC2)c1=O [Compound No. 27]")
"true (1)"

====

IC50 tested on PI3Kδ kinase (Homo sapiens, UniProt O00329): recorded values
Sequence (O00329 whole entry): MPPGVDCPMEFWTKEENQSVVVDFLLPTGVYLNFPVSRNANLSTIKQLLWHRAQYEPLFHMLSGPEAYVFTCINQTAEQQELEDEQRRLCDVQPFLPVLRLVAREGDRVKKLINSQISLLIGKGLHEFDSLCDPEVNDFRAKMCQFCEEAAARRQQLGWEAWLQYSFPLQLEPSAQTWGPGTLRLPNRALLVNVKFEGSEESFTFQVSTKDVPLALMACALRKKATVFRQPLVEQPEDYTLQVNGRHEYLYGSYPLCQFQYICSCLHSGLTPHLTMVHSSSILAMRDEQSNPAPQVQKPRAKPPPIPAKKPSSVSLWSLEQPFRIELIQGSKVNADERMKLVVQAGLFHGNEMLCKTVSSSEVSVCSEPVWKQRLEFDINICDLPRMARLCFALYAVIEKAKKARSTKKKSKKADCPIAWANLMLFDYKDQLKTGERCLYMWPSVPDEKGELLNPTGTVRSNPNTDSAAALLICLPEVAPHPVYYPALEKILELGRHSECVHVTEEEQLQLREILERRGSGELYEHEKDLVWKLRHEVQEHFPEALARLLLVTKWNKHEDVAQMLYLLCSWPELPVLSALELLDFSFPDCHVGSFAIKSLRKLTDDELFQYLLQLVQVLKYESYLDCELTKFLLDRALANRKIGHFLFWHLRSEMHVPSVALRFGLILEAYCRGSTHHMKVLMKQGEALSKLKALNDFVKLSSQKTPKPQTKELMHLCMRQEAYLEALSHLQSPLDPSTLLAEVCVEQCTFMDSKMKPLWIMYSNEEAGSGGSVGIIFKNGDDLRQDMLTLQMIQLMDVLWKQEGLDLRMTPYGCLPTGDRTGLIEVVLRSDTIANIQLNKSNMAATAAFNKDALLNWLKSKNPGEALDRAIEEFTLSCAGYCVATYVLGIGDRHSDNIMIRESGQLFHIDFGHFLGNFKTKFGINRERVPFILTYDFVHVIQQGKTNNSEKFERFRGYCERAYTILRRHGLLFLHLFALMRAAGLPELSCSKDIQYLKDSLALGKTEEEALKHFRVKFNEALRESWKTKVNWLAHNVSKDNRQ
Sequence (P27986 whole entry partner): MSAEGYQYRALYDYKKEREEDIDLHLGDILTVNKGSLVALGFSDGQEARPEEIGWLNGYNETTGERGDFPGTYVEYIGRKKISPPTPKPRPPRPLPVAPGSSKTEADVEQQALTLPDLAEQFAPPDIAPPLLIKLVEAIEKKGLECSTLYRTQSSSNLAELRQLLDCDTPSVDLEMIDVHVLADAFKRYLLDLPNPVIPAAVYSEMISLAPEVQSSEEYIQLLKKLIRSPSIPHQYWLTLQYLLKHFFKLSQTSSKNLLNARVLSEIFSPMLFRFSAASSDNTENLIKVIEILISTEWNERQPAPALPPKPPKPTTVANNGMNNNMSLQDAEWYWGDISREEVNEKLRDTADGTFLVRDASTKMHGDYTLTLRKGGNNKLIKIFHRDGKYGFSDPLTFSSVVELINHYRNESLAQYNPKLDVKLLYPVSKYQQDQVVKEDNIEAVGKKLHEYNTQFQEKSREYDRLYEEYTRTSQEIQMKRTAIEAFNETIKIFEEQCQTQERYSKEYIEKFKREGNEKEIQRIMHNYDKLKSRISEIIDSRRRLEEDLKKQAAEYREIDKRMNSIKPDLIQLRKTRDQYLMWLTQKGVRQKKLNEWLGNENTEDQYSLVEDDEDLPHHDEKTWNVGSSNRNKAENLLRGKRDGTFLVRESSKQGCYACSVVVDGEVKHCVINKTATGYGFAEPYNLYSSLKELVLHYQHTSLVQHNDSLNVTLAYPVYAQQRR
parameter.measured: IC50 (nM)

>>> reading("N#Cc1cc2cnc(Nc3ccc(C4CCNCC4)c(F)c3)nc2n(C2CCCC2)c1=O")
180
>>> reading("CN1CCN(c2ccc(Nc3ncc4cc(C#N)c(=O)n(C5CCCC5)c4n3)cc2CO)CC1")
310
>>> reading("CN(C)C1CCc2ccc(Nc3ncc4cc(C#N)c(=O)n(C5CCCC5)c4n3)cc2C1 (centres unmarked)")
945
>>> reading("CN(C)CC(=O)N1CCc2ccc(Nc3ncc4cc(C#N)c(=O)n(C5CCCC5)c4n3)cc2C1")
249
>>> reading("CS(=O)(=O)N1CCC(Nc2ncc3cc(C#N)c(=O)n(C4CCCCC4)c3n2)CC1")
539
>>> reading("N#Cc1cc2cnc(Nc3ccc(N4CCNCC4=O)cc3)nc2n(C2CCCC2)c1=O")
1330
>>> reading("N#Cc1cc2cnc(Nc3ccc4c(c3)CCNC4)nc2n(C2CCCC2)c1=O")
128

====

# System: MCF-7 breast adenocarcinoma cells
# measurement.description: Cancer cell proliferation assay, single agent (cell viability)
# Assay type: cell-based
# condition.set: Homo sapiens, MCF7, Table 4; Rb positive; treatment 144 Hr with medium change at 72 Hr; Cell Titer-Glo or resazurin
parameter.measured: IC50 (nM)

>>> reading("N#Cc1cc2cnc(Nc3cc(F)c(N4CCNCC4)c(F)c3)nc2n(C2CCCC2)c1=O")
138
>>> reading("N#Cc1cc2cnc(Nc3ccc4c(c3)CNCC4)cc2n(C2CCCC2)c1=O")
3580
>>> reading("N#Cc1cc2cnc(Nc3ccc4c(c3)CNCC4)nc2n(C2CCCC2)c1=O")
240
>>> reading("CN(C)CCN1CCC(n2ccc(Nc3ncc4cc(C#N)c(=O)n(C5CCCC5)c4n3)cc2=O)CC1")
1590
>>> reading("N#Cc1cc2cnc(Nc3ccc4c(c3)CCN(CCN)C4)nc2n(C2CCCC2)c1=O")
568
>>> reading("N#Cc1cc2cnc(NC3CCN(S(=O)(=O)C4CC4)CC3)nc2n(C2CCCC2)c1=O")
175
>>> reading("N#Cc1cc2cnc(Nc3cnc4c(c3)CNCC4)nc2n(C2CCCC2)c1=O")
452
>>> reading("CCC(CC)n1c(=O)c(C#N)cc2cnc(NC3CCN(S(C)(=O)=O)CC3)nc21")
1420
>>> reading("CN1CCN(c2ccc(Nc3ncc4cc(C#N)c(=O)n([C@H]5CC[C@H](C)CC5)c4n3)cc2)CC1")
8060
>>> reading("CS(=O)(=O)N1CC[C@@H](Nc2ncc3cc(C#N)c(=O)n(C4CCCC4)c3n2)[C@H](F)C1")
765
>>> reading("N#Cc1cc2cnc(Nc3ccc4c(c3)CCN(C(=O)CO)C4)nc2n(C2CCCC2)c1=O")
818
>>> reading("N#Cc1cc2cnc(Nc3ccc4c(c3)CCNC4)nc2n(CC2CCCCC2)c1=O")
405
>>> reading("N#Cc1cc2cnc(Nc3ccc4c(c3)CCNC4)nc2n(C23CC(C2)C3)c1=O")
445
>>> reading("N#Cc1cc2cnc(Nc3ccc4c(c3)CCNC4)nc2n(C2CC3CC3C2)c1=O (stereo not shown)")
415
>>> reading("CN(C)CCN1CCc2cc(Nc3ncc4cc(C#N)c(=O)n(C5CCCC5)c4n3)ccc2C1")
266
>>> reading("CCC(CC)n1c(=O)c(C#N)cc2cnc(Nc3ccc4c(c3)CCNC4)nc21")
532
>>> reading("N#Cc1cc2cnc(Nc3ccn(C4CCNCC4)c(=O)c3)nc2n(C2CCCC2)c1=O")
6900
>>> reading("N#Cc1cc2cnc(NC3CCN(S(=O)(=O)N4CCOCC4)CC3)nc2n(C2CCCC2)c1=O")
145
>>> reading("CCC(C)n1c(=O)c(C#N)cc2cnc(Nc3ccc4c(c3)CCNC4)nc21 (stereo not shown)")
498
>>> reading("N#Cc1cc2cnc(Nc3cc4c(cc3F)CNCC4)nc2n(C2CCCC2)c1=O")
2000
>>> reading("CN1CCc2ccc(Nc3ncc4cc(C#N)c(=O)n(C5CCCC5)c4n3)cc2C1")
315
>>> reading("CCS(=O)(=O)N1CCC(Nc2ncc3cc(C#N)c(=O)n(C4CCCC4)c3n2)CC1")
190
>>> reading("CN(C)CCN1CCc2nc(Nc3ncc4cc(C#N)c(=O)n(C5CCCC5)c4n3)ccc2C1")
3590
>>> reading("CN(C)S(=O)(=O)N1CCC(Nc2ncc3cc(C#N)c(=O)n(C4CCCC4)c3n2)CC1")
320
>>> reading("N#Cc1cc2cnc(NC3CCCC3O)nc2n(C2CCCC2)c1=O (stereo not shown)")
770

====

Reported pIC50 values for a set of molecules
# assay.system: CDK4 (Homo sapiens, UniProt P11802)
# Sequence (P11802 whole entry, one chain of several): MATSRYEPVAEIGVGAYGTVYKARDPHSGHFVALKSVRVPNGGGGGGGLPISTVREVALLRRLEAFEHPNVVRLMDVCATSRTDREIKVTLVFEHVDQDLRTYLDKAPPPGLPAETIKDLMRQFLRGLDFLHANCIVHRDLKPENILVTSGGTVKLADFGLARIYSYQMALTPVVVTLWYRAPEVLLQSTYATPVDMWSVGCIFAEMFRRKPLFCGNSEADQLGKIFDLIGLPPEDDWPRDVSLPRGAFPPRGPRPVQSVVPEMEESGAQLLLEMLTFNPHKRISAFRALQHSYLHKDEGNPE
# measurement.description: In vitro kinase inhibition IC50, luminescence (ADP Glo), retinoblastoma substrate
# condition.set: read-out: CDK4/D1 IC50
pIC50: −log10 of the molar value.
parameter.measured: pIC50

>>> reading("N#Cc1cc2cnc(Nc3cccc(S(=O)(=O)N4CCOCC4)c3)nc2n(C2CCCC2)c1=O")
"< 6.70"
>>> reading("CC(c1ccccc1)n1c(=O)c(C#N)cc2cnc(Nc3ccc(N4CCN(C)CC4)cc3)nc21 (stereo not drawn)")
"< 6.70"
>>> reading("N#Cc1cc2cnc(Nc3cccc(S(=O)(=O)N4CCC(O)CC4)c3)nc2n(C2CCCC2)c1=O")
"< 6.70"
>>> reading("CCC(C)n1c(=O)c(C#N)cc2cnc(Nc3ccc4c(c3)CCNC4)nc21 (stereo not drawn)")
6.89
>>> reading("CS(=O)(=O)N1CCC(Nc2ncc3cc(C#N)c(=O)n(CC4CCCCC4)c3n2)CC1")
7.21
>>> reading("N#Cc1cc2cnc(Nc3ccc4c(c3)CCNC4)nc2n(C2CCCC2O)c1=O (stereo not drawn)")
"< 6.70"
>>> reading("CN(C)CCN1CCc2nc(Nc3ncc4cc(C#N)c(=O)n(C5CCCC5)c4n3)ccc2C1")
"< 6.70"
>>> reading("N#Cc1cc2ccc(Nc3ccc4c(c3)CNCC4)nc2n(C2CCCC2)c1=O")
"< 6.70"
>>> reading("CN1CCN(c2ccc(Nc3ncc4cc(C#N)c(=O)n(C5CCCC5)c4n3)cc2F)CC1")
9.00

====

# assay.system: CDK6 (Homo sapiens)
# Construct: purchased Invitrogen PR8422B
# Sequence (Q00534 whole entry): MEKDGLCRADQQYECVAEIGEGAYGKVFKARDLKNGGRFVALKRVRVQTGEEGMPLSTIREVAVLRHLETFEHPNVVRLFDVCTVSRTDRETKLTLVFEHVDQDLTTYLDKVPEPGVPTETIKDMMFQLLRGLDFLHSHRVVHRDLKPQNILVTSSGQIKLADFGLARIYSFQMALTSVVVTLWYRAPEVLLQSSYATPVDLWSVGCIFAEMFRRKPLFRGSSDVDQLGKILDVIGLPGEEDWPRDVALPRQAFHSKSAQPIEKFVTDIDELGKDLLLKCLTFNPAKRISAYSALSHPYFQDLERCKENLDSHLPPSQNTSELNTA
# Sequence (P24385 whole entry partner): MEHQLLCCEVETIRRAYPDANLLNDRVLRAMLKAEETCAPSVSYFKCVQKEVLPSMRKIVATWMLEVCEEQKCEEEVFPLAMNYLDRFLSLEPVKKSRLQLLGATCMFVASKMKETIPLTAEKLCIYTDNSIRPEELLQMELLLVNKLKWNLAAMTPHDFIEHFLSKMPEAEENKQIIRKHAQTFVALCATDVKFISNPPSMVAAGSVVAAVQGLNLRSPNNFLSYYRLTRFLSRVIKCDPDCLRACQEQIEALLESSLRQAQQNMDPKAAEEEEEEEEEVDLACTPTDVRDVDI
# measurement.description: In vitro kinase inhibition IC50, luminescence (ADP Glo), retinoblastoma substrate
# Type: biochemical
# condition.set: read-out: CDK6/D1 IC50
parameter.measured: IC50

>>> reading("N#Cc1cc2cnc(Nc3cccc(S(=O)(=O)N4CCOCC4)c3)nc2n(C2CCCC2)c1=O [Compound No. 20]")
"> 200 nM"
>>> reading("C[C@@]1(O)CCC[C@H]1n1c(=O)c(C#N)cc2cnc(NC3CCN(S(C)(=O)=O)CC3)nc21 [Compound No. 380]")
"15 nM"
>>> reading("N#Cc1cc2cnc(Nc3cnn(C4CCC(O)CC4)c3)nc2n(C2CCCC2)c1=O (stereo not shown) [Compound No. 51]")
"42 nM"
>>> reading("CN(C)C1CCN(c2ccc(Nc3ncc4cc(C#N)c(=O)n(C5CCCC5)c4n3)cc2F)CC1 [Compound No. 44]")
"1 nM"
>>> reading("CS(=O)(=O)N1CCC[C@H](Nc2ncc3cc(C#N)c(=O)n(C4CCCC4)c3n2)C1 [Compound No. 364]")
"> 200 nM"
>>> reading("CN(C)CCN1CCc2ccc(Nc3ncc4cc(C#N)c(=O)n(C5CCCC5)c4n3)cc2C1 [Compound No. 62]")
"4 nM"
>>> reading("CS(=O)(=O)N1CCC(Nc2ncc3cc(C#N)c(=O)n(C4CCC(F)(F)C4)c3n2)CC1 (racemic) [Compound No. 345]")
"55 nM"
>>> reading("CN1CCN(c2ccc(Nc3ncc4cc(C#N)c(=O)n(C5CCCC5)c4n3)cc2CO)CC1 [Compound No. 10]")
"1 nM"
>>> reading("CN(C)CCN1CCC(n2ccc(Nc3ncc4cc(C#N)c(=O)n(C5CCCC5)c4n3)cc2=O)CC1 [Compound No. 73]")
"28 nM"
>>> reading("Cc1c(C#N)c(=O)n(C2CCCC2)c2nc(NC3CCN(S(C)(=O)=O)CC3)ncc12 [Compound No. 389]")
"11 nM"
>>> reading("COCCn1cc(Nc2ncc3cc(C#N)c(=O)n(C4CCCC4)c3n2)cn1 [Compound No. 104]")
"56 nM"
>>> reading("CN(C)CCN1CCc2nc(Nc3ncc4cc(C#N)c(=O)n(C5CCCC5)c4n3)ccc2C1 [Compound No. 64]")
"32 nM"
>>> reading("N#Cc1cc2cnc(Nc3ccc4c(c3)CCCC(=O)N4)nc2n(C2CCCC2)c1=O [Compound No. 83]")
"24 nM"
>>> reading("CN(C)C1CCc2ccc(Nc3ncc4cc(C#N)c(=O)n(C5CCCC5)c4n3)cc2C1 (stereo not shown) [Compound No. 48]")
"6 nM"
>>> reading("CC(C)Cn1c(=O)c(C#N)cc2cnc(Nc3ccc4c(c3)CCNC4)nc21 [Compound No. 81]")
"137 nM"
>>> reading("N#Cc1cc2cnc(Nc3ccc4c(c3)C(=O)NCC4)nc2n(C2CCCC2)c1=O [Compound No. 6]")
"2 nM"
>>> reading("N#Cc1cc2ccc(Nc3ccc4c(c3)CNCC4)nc2n(C2CCCC2)c1=O [Compound No. 326]")
"> 200 nM"
>>> reading("N#Cc1cc2ccc(Nc3ccc(N4CCNCC4)cc3)nc2n(C2CCCC2)c1=O [Compound No. 94]")
"> 200 nM"
>>> reading("N#Cc1cc2ccc(Nc3ccc4c(c3)CCNC4)nc2n(C2CCCC2)c1=O [Compound No. 97]")
"> 200 nM"
